The measurements presented in this section are drawn from patent US20250282785A1.

# Test system: p-IKKα levels in L363 (NIK translocated multiple myeloma) cells
# measurement-protocol: Effect of compounds on p-IKKα levels in L363 cells (AlphaLISA SureFire Ultra)
# Type: cell-based
# experimental-conditions: Homo sapiens, L-363; L363 cells, BAFF stimulated, MG132, 6 h; average of values; read-out: Assay 2 IC50
Some compounds, each annotated with its measured IC50.

compound | IC50
CN1CC[C@@](O)(c2cc(-c3cccc(-c4cncc(C(N)=O)n4)c3)no2)C1=O | > 501 nM
COc1cc(-c2cccc(-c3cc([C@]4(O)CCN(C)C4=O)on3)c2)nc2c(N)ncnc12 | 100 to 500 nM
CN1CC[C@@](O)(c2cc(-c3ccc(F)c(-c4cc(C(F)(F)F)cc(C(N)=O)n4)c3)no2)C1=O | > 501 nM
[2H]c1nc(N)c2nc(-c3cccc(-c4cc([C@]5(O)CCN(C)C5=O)nn4C)c3)ccc2n1 (single isomer, unassigned) | > 501 nM
COc1cc(-c2cccc(-c3cc([C@]4(O)CCN(C)C4=O)on3)c2)nc2c1c(C)nn2C | > 501 nM
CN1CC[C@@](O)(c2cc(-c3ccc(F)c(-c4cc(C5CC5)c(N)c(C(N)=O)n4)c3)no2)C1=O | < 100 nM
CN1CC[C@@](O)(c2cc(-c3cccc(-c4cccc(C(N)=O)n4)c3)no2)C1=O | > 501 nM
CN1CCC(O)(c2cn(-c3cccc(-c4nc(C(N)=O)c5ccccc5n4)c3)cn2)C1=O (racemic) | > 501 nM
CN1CC[C@@](O)(c2cc(-c3ccnc(-c4cc(C5CC5)c(N)c(C(N)=O)n4)c3)no2)C1=O | < 100 nM
[2H]c1nc(N)c2nc(-c3cccc(-c4nc([C@]5(O)CCN(C)C5=O)co4)c3)ccc2n1 (single isomer, unassigned) | > 501 nM
CN1CC[C@@](O)(c2cc(-c3cccc(-c4cc(C(N)=O)nc5[nH]ccc45)c3)no2)C1=O | > 501 nM
CN1CC[C@@](O)(c2cc(-c3cccc(-c4ncc5ccnc(N)c5n4)c3)no2)C1=O | > 501 nM
CN1CC[C@@](O)(c2cc(-c3cccc(-c4cccc5c(=O)[nH]ccc45)c3)no2)C1=O | > 501 nM
CCc1c[nH]c2ncnc(-c3cccc(-c4cc([C@]5(O)CCN(C)C5=O)on4)c3)c12 | > 501 nM
CN1CC[C@@](O)(c2cc(-c3cccc(-c4cc(C5CC5)nc(C(N)=O)n4)c3)no2)C1=O | > 501 nM
CN1CC[C@@](O)(c2cc(-c3cccc(-c4cc(-c5ccns5)cc(C(N)=O)n4)c3)no2)C1=O | > 501 nM
CN1CC[C@@](O)(c2cc(-c3cccc(-c4cccc5cnc(N)nc45)c3)no2)C1=O | > 501 nM
[2H]C1([2H])N(C)C(=O)[C@](O)(c2cc(-c3cccc(-c4cc(C5CC5)c(N)c(C(N)=O)n4)c3)no2)C1([2H])[2H] | < 100 nM
CN1CC[C@@](O)(c2cc(-c3cccc(-c4cc(C5CC5)c(N)c(C(N)=O)n4)c3)no2)C1=O | < 100 nM
CN1CC[C@@](O)(c2cc(-c3cccc(-c4cc5cc[nH]c5c(C(N)=O)n4)c3)no2)C1=O | < 100 nM
